Measured kon, listed per entry.
Biological target: T1, wildtype feline IL-31 protein (Feline_IL31_wildtype) (feline)
T1 construct: Full length feline IL-31 with C-terminal His tag, secreted from ExpiCHO cells; also called fIL-31
T1 chain: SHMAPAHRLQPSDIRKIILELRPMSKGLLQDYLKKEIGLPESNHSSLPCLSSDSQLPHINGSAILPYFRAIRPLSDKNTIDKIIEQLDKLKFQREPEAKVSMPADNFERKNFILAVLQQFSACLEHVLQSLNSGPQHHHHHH
Assay: SPR (Biacore), IL-31 on chip, 1:1 fit
Procedure: The affinity with which candidate mAbs bind canine and feline IL-31 was determined using surface plasmon resonance (SPR) on a Biacore system (Biocore Life Sciences (GE Healthcare), Uppsala, Sweden). […] Chips were quenched with ethanolamine and the affinity with which all candidate mAbs bound to the immobilized IL-31 was evaluated. […]

Binder: Feline 15H05 2.3 (antibody, V domains shown, Feline heavy and kappa constant regions) VH: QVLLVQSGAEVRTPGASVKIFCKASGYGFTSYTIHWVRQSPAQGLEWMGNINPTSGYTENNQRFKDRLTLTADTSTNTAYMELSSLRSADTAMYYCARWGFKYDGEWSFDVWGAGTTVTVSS VL: EVVLTQSSAFLSRTLKEKATITCRASQGISIWLSWYQQKPNQAPKLLVKKASNLHIGAPSRFSGSGSGTDFTLTISSPEPEDAATYYCLQSQTYPLTFGGGTKLGDQ
kon (M⁻¹ s⁻¹): 341000
--
Binder: Feline 15H05 1.1 FW2 (antibody, V domains shown, also called felinized 15H05 1.1 FW2) VH: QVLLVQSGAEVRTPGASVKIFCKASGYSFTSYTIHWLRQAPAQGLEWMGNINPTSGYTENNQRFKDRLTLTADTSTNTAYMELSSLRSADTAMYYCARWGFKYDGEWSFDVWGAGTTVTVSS VL: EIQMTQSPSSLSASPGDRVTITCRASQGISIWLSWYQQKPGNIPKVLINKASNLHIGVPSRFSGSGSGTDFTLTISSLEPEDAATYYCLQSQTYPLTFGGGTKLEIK
kon (M⁻¹ s⁻¹): 383000
--
Binder: Feline 15H05 1.1 K42N (antibody, V domains shown) VH: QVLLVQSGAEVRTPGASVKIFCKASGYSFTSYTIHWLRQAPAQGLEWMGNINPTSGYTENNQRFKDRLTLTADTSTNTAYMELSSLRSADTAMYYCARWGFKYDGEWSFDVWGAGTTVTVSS VL: EIQMTQSPSSLSASPGDRVTITCRASQGISIWLSWYQQKPGNVPKLLIYKASNLHIGVPSRFSGSGSGTDFTLTISSLEPEDAATYYCLQSQTYPLTFGGGTKLEIK
kon (M⁻¹ s⁻¹): 1630

Value source: patent US20250136677A1
